system: K562; assay: NCI tumour cell line growth inhibition, 48 h
Calls of active or inactive are those of the source. Rule as the data show it: active = GI50 up to about 1.1 µM and inactive = higher.
readoutName: GI50

>>> recordedmeasurement("Cc1cc([N+](=O)[O-])ccc1/N=N/C(=O)NNc1ccc([N+](=O)[O-])cc1C")
"19.5 µM (inactive)"
>>> recordedmeasurement("C/C(=N\\O)c1sc(-n2nc(-c3ccccc3)cc2-c2ccccc2)nc1C")
"12.6 µM (inactive)"
>>> recordedmeasurement("CCCCCCCCSC(=O)NCCCC")
"38.2 µM (inactive)"
>>> recordedmeasurement("O=C1Nc2ccccc2/C1=c1\\[nH]c(=O)/c(=C\\c2ccc(OCc3ccccc3)cn2)[nH]c1=O")
"20.4 µM (inactive)"
>>> recordedmeasurement("COc1ccc(N/N=C(\\CCN(C)C)c2ccccc2)cc1")
"2.39 µM (inactive)"
>>> recordedmeasurement("CCOC(=O)C1C(=O)c2ccccc2CN1Cc1ccccc1 (stereo unspecified)")
"> 100 µM (inactive)"
